experiment: MRT(0 to t) in BALB/c mouse at 5 mg/kg, iv measured upto 24 hrs by LC-MS/MS analysis; type: ADME, organism-based; settings: in vivo
Reported Metric: MRT last at 24 h (h)

Test Smiles: OCCN1CCC[C@@H](Nc2nnc(-c3ccc4occc4c3O)c3c2C2CCC3CC2)C1
Reported Metric: MRT last at 24 h
Readout Number: 4.1

----------
assay: Inhibition of IL-1beta release in PMA-differentiated/ LPS and nigericin stimulated human THP-1 cells at 0.5 uM pretreated with LPS for 3 hrs followed by incubation with compound for 40 mins and later stimulated with nigericin for 40 mins by ELISA; assay type: functional; conditions: THP-1, 1.333 h, time 80 min

Molecule: Oc1c(-c2nnc(N[C@@H]3CCC[C@H](O)C3)c3c2C2CCC3CC2)ccc2occc12
inhibition at 0.5 µM / %: 98.2
//
Molecule: N#CCN1CCC[C@@H](Nc2nnc(-c3ccc(C(F)(F)F)cc3O)c3c2C2CCC3C2)C1 (stereo partly specified)
inhibition at 0.5 µM / %: 77
//
Molecule: OC[C@@H](O)CNc1nnc(-c2ccc(C(F)(F)F)cc2O)c2c1C1CCC2CC1
inhibition at 0.5 µM / %: 74.5
//
Molecule: CC(C)(O)c1coc(S(=O)(=O)NC(=O)Nc2c3c(cc4c2CCC4)CCC3)c1
inhibition at 0.5 µM / %: 99.3
//
Molecule: CC(F)(F)CN1CCC[C@@H](Nc2nnc(-c3ccc(C(F)(F)F)cc3O)c3c2C2CCC3CC2)C1
inhibition at 0.5 µM / %: 49.9
//
Molecule: CN1C[C@H](Nc2nnc(-c3ccc4occc4c3O)c3c2C2CCC3CC2)CC(F)(F)C1
inhibition at 0.5 µM / %: 97.7

----------
assay: MRT(0 to t) in BALB/c mouse at 5 mg/kg, po measured upto 24 hrs by LC-MS/MS analysis; assay type: ADME, organism-based; conditions: in vivo

Test Smiles: OCCN1CCC[C@@H](Nc2nnc(-c3ccc4occc4c3O)c3c2C2CCC3CC2)C1
MRT last at 24 h: 6.07 h

----------
experiment: Half-life in BALB/c mouse at 5 mg/kg, iv measured upto 24 hrs by LC-MS/MS analysis; type: ADME, organism-based; conditions: in vivo

Test Smiles: OCCN1CCC[C@@H](Nc2nnc(-c3ccc4occc4c3O)c3c2C2CCC3CC2)C1
half-life (h): 3.51

----------
experiment: AUC(0 to t) in BALB/c mouse at 5 mg/kg, po measured upto 24 hrs by LC-MS/MS analysis; type: ADME, organism-based; settings: in vivo

Test Smiles: OCCN1CCC[C@@H](Nc2nnc(-c3ccc4occc4c3O)c3c2C2CCC3CC2)C1
AUC(0-t) at 24 h [ng·h/mL]: 5940

----------
assay: Tmax in BALB/c mouse at 5 mg/kg, iv measured upto 24 hrs by LC-MS/MS analysis; type: ADME, organism-based; conditions: in vivo
Reported Metric: Tmax

Test Smiles: OCCN1CCC[C@@H](Nc2nnc(-c3ccc4occc4c3O)c3c2C2CCC3CC2)C1
Result: 4.98 min

----------
assay: Cmax in BALB/c mouse at 5 mg/kg, po measured upto 24 hrs by LC-MS/MS analysis; format: ADME, organism-based; settings: in vivo

Test Smiles: OCCN1CCC[C@@H](Nc2nnc(-c3ccc4occc4c3O)c3c2C2CCC3CC2)C1
Cmax (ng/mL): 746
